Field: IC50. Provide a value for each of the compounds that follow.
Target: human ENT1 (Homo sapiens)
Sequence (Q99808 whole entry): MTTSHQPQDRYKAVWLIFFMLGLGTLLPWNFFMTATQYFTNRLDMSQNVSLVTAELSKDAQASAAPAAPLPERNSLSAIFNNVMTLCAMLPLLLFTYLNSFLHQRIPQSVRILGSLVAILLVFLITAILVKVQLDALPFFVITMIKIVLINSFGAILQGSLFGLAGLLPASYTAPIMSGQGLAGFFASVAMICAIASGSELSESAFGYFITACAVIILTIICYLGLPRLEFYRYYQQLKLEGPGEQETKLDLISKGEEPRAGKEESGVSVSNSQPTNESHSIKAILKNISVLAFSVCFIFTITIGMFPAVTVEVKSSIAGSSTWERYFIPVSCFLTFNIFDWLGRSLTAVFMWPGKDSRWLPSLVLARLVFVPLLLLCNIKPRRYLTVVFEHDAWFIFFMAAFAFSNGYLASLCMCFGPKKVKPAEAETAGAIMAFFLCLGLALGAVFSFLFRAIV
Assay: ENT1 binding assay (competition with Sahenta-DY647 on JAR cells)
Parameters: JAR cells expressing ENT1 were bought from ATCC; host or cells: JAR cells
Details: binned IC50

Solved cases below.
>  <Compound>
COCCN(CCOC)c1nc(N2CCC(OC)CC2)c2nc(N(CCOC)CCOC)nc(NCC3CCCC3)c2n1 [Compound 55]

>  <Measurement Target>
human ENT1 (Homo sapiens)

>  <Value Kind>
IC50

>  <Recorded Measurement>
100 to 500 nM

$$$$
>  <Compound>
COCCN(CCO)c1nc(N2CCC(OC)CC2)c2nc(N(CCOC)CCOC)nc(N3CCC(OC)CC3)c2n1 [Compound 34]

>  <Measurement Target>
human ENT1 (Homo sapiens)

>  <Value Kind>
IC50

>  <Recorded Measurement>
500 to 1000 nM

$$$$
>  <Compound>
CCNc1nc(N(CCOC)CCOC)nc2c(N3CCC(OC)CC3)nc(N(CCOC)CCOC)nc12 [Compound 126]

>  <Measurement Target>
human ENT1 (Homo sapiens)

>  <Value Kind>
IC50

>  <Recorded Measurement>
500 to 1000 nM

$$$$
>  <Compound>
COCCN(CCOC)c1nc(N2CCN(C)C(=O)C2)c2nc(N(CCOC)CCOC)nc(NCc3cccc(C(N)=O)c3)c2n1 [Compound 203]

>  <Measurement Target>
human ENT1 (Homo sapiens)

>  <Value Kind>
IC50

>  <Recorded Measurement>
100 to 500 nM

$$$$
>  <Compound>
COCCN(CCOC)c1nc(N2CC[C@@H](O)C2)c2nc(N(CCOC)CCOC)nc(N3CCC(OC)CC3)c2n1 [Compound 93]

>  <Measurement Target>
human ENT1 (Homo sapiens)

>  <Value Kind>
IC50

>  <Recorded Measurement>
500 to 1000 nM

$$$$
>  <Compound>
COCCN(CCOC)c1nc(N2CCN(C)C(=O)C2)c2nc(N(CCOC)CCn3ccnc3)nc(N3CCC(OC)CC3)c2n1 [Compound 286]

>  <Measurement Target>
human ENT1 (Homo sapiens)

>  <Value Kind>
IC50

>  <Recorded Measurement>
100 to 500 nM

$$$$

Your task in this section: give IC50 for each listed record.
1. CCOC(=O)C1CCN(c2nc(N(CCOC)CCOC)nc3c(N4CCC(C(=O)OCC)CC4)nc(N(CCO)CCO)nc23)CC1 [Compound 14]
2. COCCN(CCOC)c1nc(N2CCN(C)C(=O)C2)c2nc(N(CCOC)CCOC)nc(NCc3cccc(S(N)(=O)=O)c3)c2n1 [Compound 204]

Key:
1: 500 to 1000 nM; 2: 100 to 500 nM

Your task in this section: give IC50 for each listed record.
1. COCCN(CCOC)c1nc(N2CCC(OC)CC2)c2nc(N(CCOC)CCOC)nc(NCc3ccnc(N)c3)c2n1 [Compound 147]
2. COCCN(CCOC)c1nc(N2CCC(OC)CC2)c2nc(N(CCO)CCN(C)C(C)=O)nc(N3CCN(C)C(=O)C3)c2n1 [Compound 277]
3. COCCN(CCOC)c1nc(N2CCC(OC)CC2)c2nc(N(CCOC)CCOC)nc(NCc3cnn(C(C)C)c3)c2n1 [Compound 163]
4. COCCN(CCOC)c1nc(N2CCN(C)C(=O)C2)c2nc(N(CCO)CCO)nc(N3CCC(OC)CC3)c2n1 [Compound 271]
5. COCCN(CCOC)c1nc(N2CCC(C)(OC)CC2)c2nc(N(CCOC)CCOC)nc(N3CCC(C)(OC)CC3)c2n1 [Compound 201]
6. COCCN(CCOC)c1nc(N2CCC(S(C)(=O)=O)CC2)c2nc(N(CCOC)CCOC)nc(N3CCC(OC)CC3)c2n1 [Compound 78]
7. COCCN(Cc1ccc(OC)c(OC)c1OC)c1nc(N2CCN(C)C(=O)C2)c2nc(N(CCO)CCO)nc(N3CCC(OC)CC3)c2n1 [Compound 305]
8. COCCN(Cc1ccc(OC)c(OC)c1OC)c1nc(N2CCC(OC)CC2)c2nc(N(CCO)CCO)nc(N3CCN(C)C(=O)C3)c2n1 [Compound 304]

Key:
500 to 1000 nM
100 to 500 nM
100 to 500 nM
500 to 1000 nM
100 to 500 nM
500 to 1000 nM
< 100 nM
< 100 nM

Your task in this section: give IC50 for each listed record.
1. COCCN(CCOC)c1nc(N2CCC(OC)CC2)c2nc(N(CCOC)CCOC)nc(N(C)Cc3cccc(OC)c3)c2n1 [Compound 171]
2. COCCN(CCOC)c1nc(N2CCn3nncc3C2)c2nc(N(CCOC)CCOC)nc(N3CCN(C)C(=O)C3)c2n1 [Compound 251]
3. COCCNc1nc(N(CCOC)CCOC)nc2c(N3CCC(OC)CC3)nc(N(CCOC)CCOC)nc12 [Compound 128]
4. COCCN(CCOC)c1nc(N2CCn3cccc3C2)c2nc(N(CCOC)CCOC)nc(N3CCN(C)C(=O)C3)c2n1 [Compound 258]
5. COCCN(CCOC)c1nc(N2CCN(C)C(=O)C2)c2nc(N(CCOC)CCOC)nc(N3CCC(OC)CC3)c2n1 [Compound 72]

Key:
< 100 nM
100 to 500 nM
500 to 1000 nM
< 100 nM
< 100 nM

Your task in this section: give IC50 for each listed record.
1. COCCN(CCOC)c1nc(N2CCC(OC)CC2)c2nc(N(CCOC)CCOC)nc(NCc3cccc(C#N)c3)c2n1 [Compound 145]
2. COCCN(CCOC)c1nc(N2CCN(c3nccs3)CC2)c2nc(N(CCO)CCO)nc(N3CCCCC3)c2n1 [Compound 38]
3. COCCN(CCOC)c1nc(N2CCC(OC)CC2)c2nc(N(CCOC)CCOCCN3CCOCC3)nc(N3CCC(OC)CC3)c2n1 [Compound 45]
4. CCCN(C)c1nc(N(CCOC)CCOC)nc2c(N3CCS(=O)(=O)CC3)nc(N(CCOC)CCOC)nc12 [Compound 8]
5. COCCN(CCOC)c1nc(N2CCC(OC)CC2)c2nc(N(CCOC)CCOC)nc(NCc3ccccc3)c2n1 [Compound 49]
6. COCCN(CCOC)c1nc(N2CC(C)(O)C2)c2nc(N(CCOC)CCOC)nc(N3CCC(OC)CC3)c2n1 [Compound 101]
7. COCCN(CCOC)c1nc(N2CCn3cncc3C2)c2nc(N(CCOC)CCOC)nc(N3CCN(C)C(=O)C3)c2n1 [Compound 250]

Key:
1: < 100 nM; 2: 100 to 500 nM; 3: 100 to 500 nM; 4: < 100 nM; 5: < 100 nM; 6: 500 to 1000 nM; 7: 100 to 500 nM
